Data provenance: the supplement of paper PMC12042874

Assay: amyloid nucleation score (Sup35N fusion, yeast selection) (log enrichment); library NNK3; higher = more nucleation; inactive = no reads after selection;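 further: zero at mode of non-aggregating sequences after 7 days selection at 30°C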
Endpoint: amyloid nucleation score

// below: answered substances
{"columns": ["Substance", "Endpoint", "Observed Value"],
 "data": [
  ["VWCLFTSLSS", "amyloid nucleation score", "inactive"],
  ["LIYANEYA", "amyloid nucleation score", "inactive"],
  ["FIVVVTYARWHSRYVSGWVS", "amyloid nucleation score", "inactive"],
  ["YTWLAFRFSTSLHPRYSNIG", "amyloid nucleation score", "inactive"],
  ["QYLFCVVGGWIVRYLWPWML", "amyloid nucleation score", "inactive"]
]}

Request: Would you kindly share the measured amyloid nucleation score for ISEVLLCAFVVYIMRKR ?
Result: 0.953

Request: Would you kindly share the measured amyloid nucleation score for CDSWAYCRGCFRFML ?
Result: -0.092

Request: Would you kindly share the measured amyloid nucleation score for IGVQATVICYWRIMNRGHKR ?
Result: inactive

Request: Would you kindly share the measured amyloid nucleation score for ELLWGPMGSNWKSLVVYFSH ?
Result: inactive

Request: Would you kindly share the measured amyloid nucleation score for GRKVCLSRPTRFNSFLWMVY ?
Result: inactive

Request: Would you kindly share the measured amyloid nucleation score for TRSWVYCSKDRSMRGMHHHC ?
Result: inactive

Request: Would you kindly share the measured amyloid nucleation score for GVSSCFWSSFEQKFMKLSSV ?
Result: inactive

Request: Would you kindly share the measured amyloid nucleation score for IVAGVMADNDIRQDCAWKFK ?
Result: 1.34

Request: Would you kindly share the measured amyloid nucleation score for WNLYRFLNW ?
Result: inactive

Request: Would you kindly share the measured amyloid nucleation score for SFSCMKDSGPNMCKGLRVKQ ?
Result: inactive

====

Assay: amyloid nucleation score (Sup35N fusion, yeast selection) (log enrichment); library NNK3; higher = more nucleation; inactive = no reads after selection
Endpoint: amyloid nucleation score

// below: answered substances
{"columns": ["Substance", "amyloid nucleation score"],
 "data": [
  ["LSNIICSCQLCWACPSLSVM", 2.47],
  ["YCSYQNR", "inactive"],
  ["KVTFKYLLKSVSLGQGTT", 0.341],
  ["GIVRSVCYVNGCVLDHEVGI", "inactive"],
  ["SSRVVAWLSFNGSIICLFTF", "inactive"]
]}

Request: Would you kindly share the measured amyloid nucleation score for GISRYFYSMCETWMNCHSGV ?
Result: 0.793

Request: Would you kindly share the measured amyloid nucleation score for RWELGIQALVR ?
Result: inactive

Request: Would you kindly share the measured amyloid nucleation score for SSGLFLSISLNDGWSRGVWS ?
Result: 2.77

Request: Would you kindly share the measured amyloid nucleation score for SSGKFIVLGRNAWTLAWTLT ?
Result: inactive

Request: Would you kindly share the measured amyloid nucleation score for WYDGQRFCRELYNCPSAPGL ?
Result: inactive

Request: Would you kindly share the measured amyloid nucleation score for HWTGVAELLAGYCV ?
Result: inactive

Request: Would you kindly share the measured amyloid nucleation score for SSDNIVSGWWALSNKSATFV ?
Result: inactive

Request: Would you kindly share the measured amyloid nucleation score for WILSNRWKFHLVGLVIAFV ?
Result: inactive

Request: Would you kindly share the measured amyloid nucleation score for FFYRVSVSLSRAKI ?
Result: inactive

Request: Would you kindly share the measured amyloid nucleation score for PLPYANKNNCFGNSSLRATI ?
Result: inactive

Request: Would you kindly share the measured amyloid nucleation score for NWSVHTGIDKVKADDGEFQL ?
Result: inactive

Request: Would you kindly share the measured amyloid nucleation score for YIIFVNKLSSPYFVT ?
Result: 1.06

====

Assay: amyloid nucleation score (Sup35N fusion, yeast selection) (log enrichment); library NNK2; higher = more nucleation; inactive = no reads after selection
Endpoint: amyloid nucleation score
// keep it numeric: no unit symbol after the value

{"columns": ["Substance", "amyloid nucleation score"],
 "data": [
  ["SCRNCSQSVSLGGSSKPRQV", 0.455]
]}

Request: Would you kindly share the measured amyloid nucleation score for RLDNIIVAERCTSLRESRFG ?
Result: -0.047

Request: Would you kindly share the measured amyloid nucleation score for CIFFLVV ?
Result: 4.79

Request: Would you kindly share the measured amyloid nucleation score for CVLDNGGTYNFRLRRMDHLI ?
Result: -0.707

Request: Would you kindly share the measured amyloid nucleation score for VNRIASKWVYLLMNEFYSI ?
Result: -1.21

Request: Would you kindly share the measured amyloid nucleation score for ASSYMRWVEARTRYLACAEN ?
Result: 4.67

Request: Would you kindly share the measured amyloid nucleation score for LRRKEVKWLCL ?
Result: 0.754

Request: Would you kindly share the measured amyloid nucleation score for KRVGTYEVKI ?
Result: -0.253

Request: Would you kindly share the measured amyloid nucleation score for DCLYRLSIKSSKAMVSHECR ?
Result: -0.142

Request: Would you kindly share the measured amyloid nucleation score for WQYFFGMYNPSGGRRPGISG ?
Result: -0.373

Request: Would you kindly share the measured amyloid nucleation score for SDERSGFRTSVRG ?
Result: 0.479

Request: Would you kindly share the measured amyloid nucleation score for FPQFNRIWSSNFFAHIEGLN ?
Result: -1.85

Request: Would you kindly share the measured amyloid nucleation score for WSVWVRDSGSRMS ?
Result: 1.22

Request: Would you kindly share the measured amyloid nucleation score for SCCEGISSVNNLFMRRRGIE ?
Result: 0.201

Request: Would you kindly share the measured amyloid nucleation score for VSTTLTCEMLSVAVLFT ?
Result: 0.886

Request: Would you kindly share the measured amyloid nucleation score for RLLRQGDFGVTENRFLFRDI ?
Result: -0.502

====

Assay: amyloid nucleation score (Sup35N fusion, yeast selection) (log enrichment); library NNK1; higher = more nucleation; inactive = no reads after selection
# amyloid nucleation score >= 0.2 gives t, anything below gives f

Answered examples (2):
{"columns": ["Substance", "Label Value"],
 "data": [
  ["TLIWSCARHWV", "t"],
  ["SSGYYFVQWTCYLRK", "f"]
]}

Request: Does amyloid nucleation score meet or surpass 0.2 for HRAWAQVFFPELARSLVRSQ ?
Result: t

Request: Does amyloid nucleation score meet or surpass 0.2 for SSGRRWWTFQHHQIYLKVRS ?
Result: t

Request: Does amyloid nucleation score meet or surpass 0.2 for PAYRRCRPFFVHAHRFMGST ?
Result: t

Request: Does amyloid nucleation score meet or surpass 0.2 for CPRTWFLENNRVTIMHFYRG ?
Result: t

Request: Does amyloid nucleation score meet or surpass 0.2 for WRQWKTLTARLTAMKA ?
Result: f

====

amyloid nucleation score listing for selected substances.
Experiment: amyloid nucleation score (Sup35N fusion, yeast selection) (log enrichment); library NNK1; higher = more nucleation; inactive = no reads after selection
// keep it numeric: no unit symbol after the value

{"columns": ["Substance", "Observed Value"],
 "data": [
  ["SSRDGTIRRGWIWVDVRVKS", 0.142],
  ["LLWTSNIIYMSFAVRNKSVR", 0.59]
]}

Request: Would you kindly share the measured amyloid nucleation score for TYRVLGWMYTCW ?
Result: -0.809

Request: Would you kindly share the measured amyloid nucleation score for FLVWIMGSFPTGRGANRRNS ?
Result: -0.465

Request: Would you kindly share the measured amyloid nucleation score for ENQPVPLQDLKGAV ?
Result: -0.352

====

Assay: amyloid nucleation score (Sup35N fusion, yeast selection) (log enrichment); library NNK2; higher = more nucleation; inactive = no reads after selection
# amyloid nucleation score >= 0.3 gives yes, anything below gives no

Answered examples (6):
{"columns": ["Substance", "Label Value"],
 "data": [
  ["VPNFRS", "yes"],
  ["DKIRTSKAISQIWLLPIYFE", "yes"],
  ["EYLRPSWSH", "no"],
  ["FGKNYNFCNV", "no"],
  ["RHRCSI", "no"],
  ["RDLEPYLHIWSLIVSARV", "no"]
]}

Request: Does amyloid nucleation score meet or surpass 0.3 for IQLDTESSLVKRRAWYG ?
Result: yes

Request: Does amyloid nucleation score meet or surpass 0.3 for LSTCCVKVVVCRDFIIVDKF ?
Result: yes

====

Assay: amyloid nucleation score (Sup35N fusion, yeast selection) (log enrichment); library NNK3; higher = more nucleation; inactive = no reads after selection
Endpoint: amyloid nucleation score

// below: answered substances
{"columns": ["Substance", "amyloid nucleation score"],
 "data": [
  ["MSWGGCNAVRKFFECRRRVQ", 0.222],
  ["SKTGLDMADMIKRGDCGEST", "inactive"],
  ["VANYGQVQHWYRGYVEDEGL", "inactive"],
  ["FLFLLWCNMMPEMYVIAMNI", "inactive"],
  ["LNLQNVVYGTMSEHSASSVD", "inactive"],
  ["CSMLASMWTTIRYLLLLEVA", 1.49],
  ["PDLIHFTCLSSWFSSVVALV", "inactive"],
  ["NYLGVTYCSYSS", "inactive"],
  ["PLSVAFYGVTIR", 0.056],
  ["NQSCFMSAGNGSF", "inactive"]
]}

Request: Would you kindly share the measured amyloid nucleation score for TTSLKTHVLPRNVFRFEPYM ?
Result: inactive

Request: Would you kindly share the measured amyloid nucleation score for SRQPRCALVVDVPP ?
Result: inactive

Request: Would you kindly share the measured amyloid nucleation score for MIRMIMLSRSDRPGVSRKLD ?
Result: inactive
